Molecular target: human Farnesoid X Receptor (FXR) ligand binding domain (GST-FXR LBD) (Homo sapiens)
Sequence (Q96RI1 193-472 isoform Q96RI1-2): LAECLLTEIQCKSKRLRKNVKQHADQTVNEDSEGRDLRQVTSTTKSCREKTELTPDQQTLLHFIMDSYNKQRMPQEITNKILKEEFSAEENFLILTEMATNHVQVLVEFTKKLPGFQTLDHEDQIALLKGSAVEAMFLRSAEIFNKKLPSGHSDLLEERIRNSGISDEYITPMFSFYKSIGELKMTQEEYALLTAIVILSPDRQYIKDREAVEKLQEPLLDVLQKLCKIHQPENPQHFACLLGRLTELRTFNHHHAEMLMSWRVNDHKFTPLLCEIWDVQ
Assay: Human GST-FXR LBD co-activator interaction assay (FXR HTRF assay)
Details: GST-FXR LBD interaction with biotin-labeled SRC-1 peptide, FRET, response relative to GW4064, read-out: FXR coactivator interaction assay (HTRF)
Assign labels as follows, please: yes (1) for EC50 below 2 nM; no (0) for EC50 equal to or exceeding 2 nM.

Recorded results for 6 molecules are shown here.
Cn1nc(C(=O)N(CCNc2cc(C(=O)O)ccc2F)Cc2cccc(F)c2)c2c1-c1cc(F)c(F)cc1OC2 [Compound 73] = no (0)
Cc1cccc(CN(CC(=O)Nc2cc(C(=O)O)ccc2F)C(=O)c2nn(C)c3c2COc2ccc(F)cc2-3)c1 [Compound 20] = yes (1)
Cn1nc(C(=O)N(CC(=O)Nc2cc(C(=O)O)ccc2F)Cc2ccccc2F)c2c1-c1cc(Cl)ccc1OC2 [Compound 64] = yes (1)
Cn1nc(C(=O)N(CCOc2c(F)cc(C(=O)O)cc2F)Cc2ccccc2)c2c1-c1cc(F)ccc1OC2 [Compound 54] = no (0)
Cn1nc(C(=O)N(CC(=O)Nc2cc(C(=O)O)ccc2F)Cc2ccccc2)c2c1-c1ccccc1OC2 [Compound 33] = yes (1)
Cn1nc(C(=O)N(CCOc2cc(C(=O)O)ccc2F)Cc2ccccc2F)c2c1-c1cc(Cl)ccc1OC2 [Compound 48] = no (0)

Now look at this one.
### Prompt Here's an entry: Cn1nc(C(=O)N(CC(=O)Nc2cc(C(=O)O)ccc2F)Cc2ccccc2F)c2c1-c1ccccc1OC2 [Compound 16] . Is its EC50 below 2 nM?
### Response no (0)

###

Listed here: items and their measured EC50.
Biological target: human Farnesoid X Receptor (FXR) ligand binding domain (GST-FXR LBD) (Homo sapiens)
Sequence (Q96RI1 193-472 isoform Q96RI1-2): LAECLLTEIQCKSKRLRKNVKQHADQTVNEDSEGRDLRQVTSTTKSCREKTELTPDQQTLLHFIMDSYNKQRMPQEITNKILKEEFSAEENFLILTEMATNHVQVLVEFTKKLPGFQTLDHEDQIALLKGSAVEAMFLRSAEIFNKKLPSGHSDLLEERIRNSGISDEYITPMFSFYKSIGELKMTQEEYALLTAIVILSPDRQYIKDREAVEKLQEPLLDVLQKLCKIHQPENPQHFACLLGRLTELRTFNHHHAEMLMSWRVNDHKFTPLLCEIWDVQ
Experiment: Human GST-FXR LBD co-activator interaction assay (FXR HTRF assay)
Conditions: GST-FXR LBD interaction with biotin-labeled SRC-1 peptide, FRET, response relative to GW4064, read-out: FXR coactivator interaction assay (HTRF)
Just the number please, in nM, no unit attached.

Some solved cases for reference:
Cc1ccc(C(=O)O)cc1NC(=O)CN(Cc1ccccc1F)C(=O)c1nn(C)c2c1COc1ccc(Cl)cc1-2 [Compound 39] = 5.9
Cn1nc(C(=O)N(CCOc2cccc(C(=O)O)c2)Cc2ccccc2F)c2c1-c1cc(Cl)ccc1OC2 [Compound 44] = 11
Cn1nc(C(=O)N(Cc2ccc(C(=O)O)cc2)Cc2ccc3[nH]ccc3c2)c2c1-c1cc(Cl)ccc1OC2 [Compound 86] = 12
Cn1nc(C(=O)N(CCOc2ccc(C(=O)O)cc2F)Cc2ccccc2F)c2c1-c1cc(F)ccc1OC2 [Compound 61] = 89
Cc1cccc(CN(CC(=O)Nc2cc(C(=O)O)ccc2F)C(=O)c2nn(C)c3c2COc2ccc(Cl)cc2-3)c1 [Compound 3] = 0.51
Cc1nc(C(=O)O)ccc1CN(Cc1cccc(F)c1)C(=O)c1nn(C)c2c1COc1ccc(Cl)cc1-2 [Compound 99] = 29

### Prompt Give recorded EC50 with human Farnesoid X Receptor (FXR) ligand binding domain (GST-FXR LBD) (Homo sapiens) for the following molecule: Cn1nc(C(=O)N(CC(=O)Nc2cccc(C(=O)O)c2)Cc2ccccc2F)c2c1-c1cc(F)ccc1OC2 [Compound 7]
### Response 1

### Prompt Lab note: need EC50 for Cc1ccc(C(=O)O)cc1NC(=O)CN(Cc1ccccc1F)C(=O)c1nn(C)c2c1COc1ccc(Cl)cc1-2 [Compound 30] on human Farnesoid X Receptor (FXR) ligand binding domain (GST-FXR LBD) (Homo sapiens), anyone have it?
### Response 0.6

### Prompt Enter reported EC50 observed with human Farnesoid X Receptor (FXR) ligand binding domain (GST-FXR LBD) (Homo sapiens) for Cn1nc(C(=O)N(Cc2cccc(F)c2)Cc2ccc(C(=O)O)cc2F)c2c1-c1cc(Cl)ccc1OC2 [Compound 96]
### Response 3.6

### Prompt Give recorded EC50 with human Farnesoid X Receptor (FXR) ligand binding domain (GST-FXR LBD) (Homo sapiens) for the following molecule: Cn1nc(C(=O)N(CCOc2ccc(C(=O)O)cc2F)Cc2ccccc2F)c2c1-c1cc(Cl)ccc1OC2 [Compound 43]
### Response 18
